Known CC50 of a selection of molecules
- Tested on: Raji
- experiment.description: Dose required to inhibit Human B-Lymphoblast (Raji) cell proliferation by 50%
- Assay type: functional
- condition.info: read-out: CD50 (the source's name)
reported.metric: CC50

{"columns": ["molecule", "result.value"],
 "data": [
  ["COC(=O)c1cc(NC(=O)c2cc([N+](=O)[O-])cn2C)cn1C", "> 100 mg/L"],
  ["Cn1cc(NC(=O)c2cc(NC(=O)CNC(=N)N)cn2C)cc1C(=O)NCCCNCCCCN", "> 200 mg/L"],
  ["Cn1cc(NC(=O)c2cc([N+](=O)[O-])cn2C)cc1C(=O)O", "> 100 mg/L"],
  ["Cn1cc(NC(=O)c2cc([N+](=O)[O-])cn2C)cc1C(=O)NCCCNCCCCN", "> 100 mg/L"],
  ["Cn1cc([N+](=O)[O-])cc1C(=O)NCCC#N", "> 50 mg/L"],
  ["Cn1cc([N+](=O)[O-])cc1C(=O)NCCC(=N)N", "> 50 mg/L"],
  ["Cn1cc([N+](=O)[O-])cc1C(=O)O", "> 100 mg/L"],
  ["CC(NC(=O)c1cc(NC(=O)c2cc([N+](=O)[O-])cn2C)cn1C)C(=O)NC(C)C(=O)OC(C)(C)C (stereo not given)", "33 mg/L"],
  ["CC(NC(=O)C(C)NC(=O)c1cc(NC(=O)c2cc(NC(=O)CNC(=N)N)cn2C)cn1C)C(=O)O (stereo not given)", "> 100 mg/L"],
  ["Cn1cc([N+](=O)[O-])cc1C(=O)NCCCNCCCCN", "> 200 mg/L"],
  ["Cn1cc(NC(=O)c2cc(NC(=O)CNC(=N)N)cn2C)cc1C(=O)NCCC(=N)N [NETROPSIN]", "139 mg/L"],
  ["Cn1c(C(=O)O)ccc1[N+](=O)[O-]", "> 50 mg/L"],
  ["Cn1c(C(=O)NCCC(=N)N)ccc1[N+](=O)[O-]", "> 50 mg/L"],
  ["CC(NC(=O)c1cc(NC(=O)c2cc(NC(=O)CNC(=N)N)cn2C)cn1C)C(=O)OC(C)(C)C (stereo not given)", "> 100 mg/L"],
  ["CC(NC(=O)c1cc(NC(=O)c2cc([N+](=O)[O-])cn2C)cn1C)C(=O)OC(C)(C)C (stereo not given)", "33.8 mg/L"],
  ["CC(NC(=O)c1cc(NC(=O)c2cc(NC(=O)CNC(=N)N)cn2C)cn1C)C(=O)O (stereo not given)", "> 100 mg/L"],
  ["C[C@H](NC(=O)[C@H](C)NC(=O)[C@H](C)NC(=O)c1cc(NC(=O)c2cc(NC(=O)CNC(=N)N)cn2C)cn1C)C(=O)O", "> 100 mg/L"],
  ["Cn1cc(NC(=O)CNC(=N)N)cc1C(=O)NCCCNCCCCN", "> 200 mg/L"],
  ["Cn1c(C(=O)NCCC#N)ccc1[N+](=O)[O-]", "> 50 mg/L"],
  ["C[C@H](NC(=O)c1cc(NC(=O)c2cc([N+](=O)[O-])cn2C)cn1C)C(=O)N[C@@H](C)C(=O)N[C@@H](C)C(=O)OC(C)(C)C", "> 100 mg/L"]
]}

Provenance of the data: ChEMBL document CHEMBL1124462
